- TEST DETAILS: Cmax in CD1 mouse at 0.5 mg/kg, iv
- Type: ADME, organism-based
- Set-up: dose 0.5 mg/kg, route iv
- CONDITION PARAMETERS: in vivo
Reported Cmax by item:
ENDPOINT: Cmax (nM)

O=C(/C=C/c1ccc2c(c1)C(=O)CC1(CCN(CCc3ccccc3)CC1)O2)NO 2490
O=C(/C=C/c1ccc2c(c1)C(=O)CC1(CCN(Cc3ccc(F)cc3)CC1)O2)NO 1830

----------
- TEST DETAILS: Lipophilicity, logP of the compound
- Format: physicochemical
- CONDITION PARAMETERS: octanol/water

MOLECULE	logP
OC(CN1CCC2(CC1)CC(O)c1ccc3ccccc3c1O2)c1ccc(F)c(F)c1 (stereo unspecified)	3.85

----------
- SUBJECT OF TEST: Carbonic anhydrase 9 (Homo sapiens)
- TEST DETAILS: Binding affinity to human CA9 assessed as inhibition constant
ENDPOINT: log10 of Ki (log10 of the value in nM)

NS(=O)(=O)c1ccc(N2CCC3(CC2)CC(=O)c2ccc(O)cc2O3)c([N+](=O)[O-])c1 3.64
NS(=O)(=O)c1ccc(N2CCC3(CC2)CC(=O)c2ccc(Br)cc2O3)c([N+](=O)[O-])c1 3.17
COCCOc1ccc2c(c1)OC1(CCN(c3ccc(S(N)(=O)=O)cc3[N+](=O)[O-])CC1)CC2=O 1.66
CCCOc1ccc2c(c1)OC1(CCN(c3ccc(S(N)(=O)=O)cc3[N+](=O)[O-])CC1)CC2=O 3.62
CCOc1ccc2c(c1)C(=O)CC1(CCN(c3ccc(S(N)(=O)=O)cc3[N+](=O)[O-])CC1)O2 3.45
NS(=O)(=O)c1ccc(N2CCC3(CC2)CC(=O)c2ccc(OCCO)cc2O3)c([N+](=O)[O-])c1 1.67
NS(=O)(=O)c1ccc(N2CCC3(CC2)CC(=O)c2ccccc2O3)c([N+](=O)[O-])c1 2.36
NS(=O)(=O)c1ccc(N2CCC3(CC2)CC(=O)c2cc(OCCO)ccc2O3)c([N+](=O)[O-])c1 3.57

----------
- TEST DETAILS: Antioxidant activity assessed as DPPH free radical scavenging activity at 500 microg/ml
- Assay type: functional
pIC50: −log10 of the molar value.
compounds and their reported pIC50
ENDPOINT: pIC50

O=C1Nc2ccc(Br)cc2/C1=C/C(=O)c1cc2c(cc1O)OC1(CCN(Cc3ccccc3)CC1)CC2=O 4.90
CC(C)(C)OCC(=O)CN1CCC2(CC1)CC(=O)c1cc(C(=O)/C=C3\C(=O)Nc4ccc(Br)cc43)c(O)cc1O2 4.25
CCOC(=O)N1CCC2(CC1)CC(=O)c1cc(C(=O)/C=C3\C(=O)Nc4ccccc43)c(O)cc1O2 5.76
CC(C)(C)OCC(=O)CN1CCC2(CC1)CC(=O)c1cc(C(=O)/C=C3\C(=O)Nc4ccccc43)c(O)cc1O2 5.16
O=C1Nc2ccccc2/C1=C/C(=O)c1cc2c(cc1O)OC1(CCN(Cc3ccccc3)CC1)CC2=O 5.09

----------
- TEST DETAILS: Clearance in CD-1 mouse at 10 mg/kg iv measured by UPLC-MS/MS method
- Assay type: ADME, organism-based
- CONDITION PARAMETERS: CD-1, mouse, in vivo
ENDPOINT: clearance (mL/min/kg)

O=C(/C=C/c1ccc2c(c1)C(=O)CC1(CCN(Cc3ccc(F)cc3)CC1)O2)NO 55.8

----------
- TEST DETAILS: AUC in CD1 mouse at 10 mg/kg, iv administered as single dose by UPLC analysis
- Format: ADME, organism-based
- Set-up: dose 10 mg/kg, route iv
- CONDITION PARAMETERS: in vivo
Listed next: entries and their corresponding AUC.
ENDPOINT: AUC (ng·h/mL)

O=C(/C=C/c1ccc2c(c1)C(=O)CC1(CCN(Cc3ccc(F)cc3)CC1)O2)NO 1240
O=C(/C=C/c1ccc2c(c1)C(=O)CC1(CCN(CCc3ccccc3)CC1)O2)NO 1600
